# Tested on: barley (cultivar Lawina)
# PROTOCOL DETAILS: Phytotoxicity greenhouse test, spray of carboxylic acid amide on barley
# Format: in vivo
# CONDITION LABEL: 3-4 leaf stage, spray 200 l/ha comprising 1500 ml carboxylic acid amide/ha, visual score vs plants treated with water only
# reported Phytotoxicity [%] 10 days after treatment; entries follow
Value expressed in %; do not type the unit.

Study these solved cases before continuing.
[
  {
    "MOLECULE": "CCC(=O)N(CC)CC [Diethylpropionamide, N,N-diethyl-propionamide]",
    "READOUT UNITS": "%",
    "ENDPOINT VALUE": 6
  },
  {
    "MOLECULE": "CCC(=O)N(C)C [Dimethylpropionamide, N,N-dimethyl-propionamide, reference compound]",
    "READOUT UNITS": "%",
    "ENDPOINT VALUE": 43
  },
  {
    "MOLECULE": "CCCCN(CCCC)C(=O)CC [Dibutylpropionamide, N,N-dibutyl-propionamide]",
    "READOUT UNITS": "%",
    "ENDPOINT VALUE": 0
  }
]

Would you kindly look at the next entry?
INPUT: Sample CCCCCCCC(=O)N(CCCC)CCCC [C8-dibutylamide, N,N-dibutyl-octanamide] — what was its Phytotoxicity [%] 10 days after treatment?
OUTPUT: 5
